Study System: T1, GPR39 (G protein coupled receptor 39) (UniProt O43194 1-453, limits assumed)
T1 sequence (looked up): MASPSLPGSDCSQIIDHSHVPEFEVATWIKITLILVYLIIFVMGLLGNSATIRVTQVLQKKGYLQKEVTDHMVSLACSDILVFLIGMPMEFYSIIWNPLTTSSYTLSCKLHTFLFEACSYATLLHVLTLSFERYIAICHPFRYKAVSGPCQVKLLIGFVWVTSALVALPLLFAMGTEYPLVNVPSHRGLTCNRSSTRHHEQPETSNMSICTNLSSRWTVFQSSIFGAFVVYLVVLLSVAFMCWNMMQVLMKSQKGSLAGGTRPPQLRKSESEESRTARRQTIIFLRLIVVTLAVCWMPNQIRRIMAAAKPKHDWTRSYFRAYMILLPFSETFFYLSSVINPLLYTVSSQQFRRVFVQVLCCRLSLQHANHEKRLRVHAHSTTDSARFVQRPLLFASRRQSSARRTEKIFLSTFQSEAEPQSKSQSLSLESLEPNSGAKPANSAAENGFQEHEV
Assay: cell-based or functional assay
Square brackets hold non-standard residues; d marks the D form. Ends that are not written are not given here. * marks the point of attachment. DAMP‑3 = 1,3-diphenethyl substitution on the histidine imidazole ring (1,3-diphenethyl-2,3-dihydro-1H-imidazol-4-yl side chain); 1‑phenyl = 1-phenyl substituent on the histidine imidazole (1-phenyl-1H-imidazol-4-yl), c1ccc(*)cc1; 4‑methoxylbenzhydryl = COc1ccc(C(c2ccccc2)*)cc1; dPhe(4-Me) = Cc1ccc(C[C@@H](N)C(=O)O)cc1; Trt = c1ccc(C(c2ccccc2)(c2ccccc2)*)cc1; Palmitoyl = CCCCCCCCCCCCCCCC(=O)*; Decanoyl = CCCCCCCCCC(=O)*; Octanoyl = CCCCCCCC(=O)*
// values below are reported EC50; SRE-luciferase reporter
# value in µM; strip the unit string

Binder | Unit Label | EC50; SRE-luciferase reporter
H(4‑methoxylbenzhydryl)K(Octanoyl)FY [HKFY-20] | µM | 159

Task: Dear colleague, I am looking for the recorded EC50; SRE-luciferase reporter of the following binder: HK(Octanoyl)[dPhe(4-Me)]Y (not fully specified (residue 1)) [HKFY-32]
Output: 0.002

Task: Dear colleague, I am looking for the recorded EC50; SRE-luciferase reporter of the following binder: HK(Octanoyl)FY (not fully specified (residue 1)) [HKFY-10]
Output: 46.5

Task: Dear colleague, I am looking for the recorded EC50; SRE-luciferase reporter of the following binder: H(Trt)K(Palmitoyl)FY-OH [HKFY-27]
Output: 0.56

Task: Dear colleague, I am looking for the recorded EC50; SRE-luciferase reporter of the following binder: H(Trt)K(Decanoyl)FY-OH [HKFY-24]
Output: 0.24

Task: Dear colleague, I am looking for the recorded EC50; SRE-luciferase reporter of the following binder: H(1‑phenyl)K(Octanoyl)[dPhe(4-Me)]Y-OH [HKFY-58]
Output: 0.02

Task: Dear colleague, I am looking for the recorded EC50; SRE-luciferase reporter of the following binder: HK(Octanoyl)FY (not fully specified; also: His1 substituent: phenethyl or phenylpropyl) [HKFY-19]
Output: 24.6

Task: Dear colleague, I am looking for the recorded EC50; SRE-luciferase reporter of the following binder: H(Trt)GSK(Octanoyl)FY-OH [HKFY-53]
Output: 0.34

Task: Dear colleague, I am looking for the recorded EC50; SRE-luciferase reporter of the following binder: H(DAMP‑3)K(Octanoyl)FY [HKFY-6]
Output: 68.4
